Assay: Cytotoxicity in HFF cells after 72 hrs by trypan blue exclusion assay
Format: cell-based
Settings: human
MEASURED ENDPOINT: GI50 at 72 h (µM)
Hi! Could you send only the number? It should be in µM, unit omitted.

>>> df
                           structure_string  unit_label  result_number
0  CCCCOc1ccc(NC(=O)n2nc(N)c3cc(N)ccc32)cc1          µM             32

We next turn to a different compound, shown below.
Which GI50 at 72 h reading was recorded for the compound Nc1nn(C(=O)Nc2ccc(Cc3ccccc3)cc2)c2ccc(Cl)cc12 ?
36
